Assay: soluble on expression in E. coli; label from the status in PepcDB or PDB records
experimental_endpoint: soluble on expression in E. coli

• MFVGPSPPHTPLVNRRNINNHRPRNATVTSALPDIFLAAVSLLFLWSSPKPLVSLPPNRFSFPLNPRRRSITAMSRRSPPPPPPTQRFANPQSLSDWLESRLPSDSFAAWGVKPGTKNVHNLWLELSDGETSLADSTPPVRTVNVVTVRVIGKNGRILVEAHQELSDGSIRERFRPLSEKMKPEESPDEAVFRAIKEELGSIFNGDGDNIGQRIKILPGTYNRRVEERNSLSYPGLPARYALHSVNATVEGLPEQDFCTEEKEYEGGDSTKDSVETLAAGNAVTVKRHYWKWVSPDSIRS = not soluble
• SLVYDGNNKLIADLGSEKRESVSADSIPLNLVNAITSIEDKRFFKHRGVDIYRILGAAWHNLVSSNTQGGSTLDQQLIKLAYFSTNKSDQTLKRKSQEVWLALQMERKYTKEEILTFYINKVYMGNGNYGMRTTAKSYFGKDLKELSIAQLALLAGIPQAPTQYDPYKNP = not soluble
• KGKKVILFAPTFRGSGHGTAHYPFFKIDFERLARYCEKNNAVVLFKMHPFVKNRLNIADKHKQYFVDVSDFREVNDILFITDLLISDYSSLIYEYAVFKKPMIFYAFDLEDYITTRDFYEPYESFVPGKIVQSFDALMDALDNEDYEGEKVIPFLDKHFKYQDGRSSERLVRNLFG = not soluble
